Let's look at some binders and their measured pKd.
- measuredTarget: Inadl_3, Q8NI35
- Sequence (Q8NI35 359-469): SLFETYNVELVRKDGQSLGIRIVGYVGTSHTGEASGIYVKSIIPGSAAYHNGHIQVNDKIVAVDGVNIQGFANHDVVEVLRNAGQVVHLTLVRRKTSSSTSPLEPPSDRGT
- assayOverview: holdup assay
- Set-up: key: below the threshold = too weak to quantify, mostly under pKd 3.1 to 4
- protocolConditions: plain residues with an end cap or a label only (N-terminal biotin on a linker: ahx)
measureName: pKd

>>> value("QDEKVKESYV [ABCA1, O95477]")
3.75
>>> value("TESNLQTSSC [CGN, Q9P2M7]")
3.64
>>> value("QNTDDVQTSF [ACE2, Q9BYF1]")
3.66
>>> value("HTHSYIETHV [CNKSR2, Q8WXI2]")
3.66
